Please respond with reported TGI for every item in the list.
- System: HL-60(TB) leukemia
- Protocol text: NCI tumour cell line growth inhibition, 48 h

Example compounds with recorded TGI:
line_notation=O=c1c(Nc2ccccc2)cn(CCOc2ccccc2)c(=O)n1CCOc1ccccc1 obs_value="> 100 µM"
line_notation=Cc1ccc(-c2cc(=O)c3cc4c(cc3[nH]2)OCO4)cc1 obs_value="2.77 µM"

Okay, next one:
// `[N-]=[N+]=CC(=O)OC1CCOCC1` : TGI value = > 100 µM

---

- Test system: OVCAR-3 ovarian
- Protocol text: NCI tumour cell line growth inhibition, 48 h
Observable: TGI

Example compounds with recorded TGI:
compound="CCCCCCCCCCCCCCCCOCC(Cl)CP(=O)(O)OP(=O)(O)OCC1OC(n2cnc3c(N)ncnc32)C(O)C1O (stereo not drawn)" tested_system="OVCAR-3 ovarian" obs_value="> 100 µM"
compound=COc1ccccc1-c1cc(=O)c2c(C)cc(C)nc2[nH]1 tested_system="OVCAR-3 ovarian" obs_value="> 100 µM"

Okay, next one:
// `O=C(C(=O)c1cc(-c2ccccc2)nc2ccc3ccccc3c12)c1ccccc1` : TGI value = > 100 µM

---

Please respond with reported TGI for every item in the list.
- Test system: IGROV1 ovarian
- Protocol text: NCI tumour cell line growth inhibition, 48 h

Example molecules with recorded TGI:
molecule=CCOC(=O)c1csc(NC(=O)CN2CCN(c3ccccc3)CC2)n1 obs_value="> 100 µM"
molecule="CCOC(=O)NC(NCC(O)c1ccccc1)(C(F)(F)F)C(F)(F)F (stereo not drawn)" obs_value="> 100 µM"

Okay, next one:
// `Nc1ccc(Sc2nnc(N)s2)cc1` : TGI value = > 100 µM

---

- Test system: DLD-1 colon
- Protocol text: NCI tumour cell line growth inhibition, 48 h
Observable: TGI (µM)
Answers are plain numbers, in µM.

Example molecules with recorded TGI:
line_notation=O=S1(=O)OCCOS(=O)(=O)C1(I)I obs_value=35.8
line_notation=CC(C)(C)c1ccc2c(c1)OP1(Oc3cccc4cccnc34)(O2)Oc2ccc(C(C)(C)C)cc2O1 obs_value=21.2

Okay, next one:
// `COc1ccccc1N=NC(C(=O)c1ccccc1)C(=O)c1ccccc1` : TGI value = 54.9

---

- Tested on: SNB-75 CNS
- Protocol text: NCI tumour cell line growth inhibition, 48 h
Please respond with reported TGI for every item in the list.

State recorded TGI for all listed compounds.
1. CC(C)(C)c1ccc2c(c1)OP1(Oc3cccc4cccnc34)(O2)Oc2ccc(C(C)(C)C)cc2O1
2. NC(N)=Nc1ccc(CC(N)C(=O)NCC(=O)C(CC(=O)O)c2ncc(NC(=O)C(F)(F)F)o2)cc1 (stereo not given)

Return:
> 54.2 µM
> 25 µM

State recorded TGI for all listed compounds.
1. CN(C)/C=N/S(=O)(=O)c1nn2c(C=O)c(-c3ccccc3)nc2s1
2. NC(=O)C1CCCNC1 (stereo not given)
3. CC(=O)O[C@]1(C)CCC2C(C)C(=O)OC2C2C(C)[C@@H](O)CC21 (stereo not given in full)

Return:
> 100 µM
> 100 µM
> 100 µM

---

- Tested on: UACC-62 melanoma
- Protocol text: NCI tumour cell line growth inhibition, 48 h
Observable: TGI

compound=CCOC(=O)C1=C(C#N)S(=O)(=O)c2c(oc(C)c2C)N1 observable=TGI obs_value="> 100 µM"
compound=Cc1cc(C)nc(NS(=O)(=O)c2ccc(NC(=O)c3cccc4c(Nc5ccc(S(=O)(=O)N=C(N)N)cc5)c5ccccc5nc34)cc2)n1 observable=TGI obs_value="> 100 µM"
compound="CC(C)(C)[Si](C)(C)OC1(CCc2ccccc2OS(=O)(=O)C(F)(F)F)CCCC=C1COCc1ccccc1 (centres undefined)" observable=TGI obs_value="> 53 µM"

Okay, next one:
// NC(CCCCO)C(=O)O (centres undefined) : TGI value = > 100 µM

---

Please respond with reported TGI for every item in the list.
- System: RXF 393 renal
- Protocol text: NCI tumour cell line growth inhibition, 48 h

Example molecules with recorded TGI:
molecule="O=c1[nH]c2cc([N+](=O)[O-])ccc2nc1/C(=N/Nc1ccccc1)C(O)c1ccc(Cl)cc1Cl (configuration not stated)" obs_value="> 100 µM"
molecule=Nc1cnc(Nc2cccc3ccccc23)o1 obs_value="> 10 µM"
molecule=CCCOc1ccc2sc(NC(=O)c3cc([N+](=O)[O-])cc([N+](=O)[O-])c3)nc2c1 obs_value="> 100 µM"

State recorded TGI for all listed molecules.
1. O=c1c(-c2ccccc2)c(SCCN2CCCC2)n(-c2ccccc2)c(=S)n1-c1ccccc1
2. COc1cc(C(=O)Nc2cccc3ccccc23)c(Br)c(OC)c1OC

Return:
1. > 100 µM
2. > 100 µM

---

- Tested on: OVCAR-5 ovarian
- Protocol text: NCI tumour cell line growth inhibition, 48 h
Please respond with reported TGI for every item in the list.

Example compounds with recorded TGI:
compound=COc1cc(C(=O)Nc2cccc3ccccc23)c(Br)c(OC)c1OC obs_value="> 100 µM"
compound=CCCCCCCCNC(=O)SCCCC obs_value="> 100 µM"
compound=CN(c1ccc(Cl)c(Cl)c1)c1cnc2cc(N)cc(N)c2n1 obs_value="30.5 µM"

State recorded TGI for all listed compounds.
1. CC(C)(C)[Si](C)(C)OC1(CCc2ccccc2OS(=O)(=O)C(F)(F)F)CCCC=C1COCc1ccccc1 (configuration not stated)
2. CC(C#N)NCc1ccc(C(C)NC(C)C#N)cc1 (configuration not stated)
3. CN(c1ccc(C(=O)O)cc1)c1cc(O/N=[N+](\[O-])N(C)C)c([N+](=O)[O-])cc1[N+](=O)[O-]

Return:
1: > 100 µM; 2: > 100 µM; 3: 72.5 µM

State recorded TGI for all listed compounds.
1. COc1cc2c(c(OC)c1OC)CCNC2C1=C(O)COC1=O (configuration not stated)
2. CC1COC(c2cn[nH]c2C(N)=O)C1O (configuration not stated)

Return:
> 100 µM
> 100 µM

---

- System: SF-268 CNS
- Protocol text: NCI tumour cell line growth inhibition, 48 h
Observable: TGI

compound=Cc1ccc(-c2cc(=O)c3cc4c(cc3[nH]2)OCO4)cc1 obs_value="> 72.1 µM"
compound="C=C(C)[C@@H]1/C=C(/C(C)C)CC[C@@]2(C)OC2CC[C@H](C)CC1=O (stereo partly drawn)" obs_value="> 100 µM"

Okay, next one:
// C=CC(O)(CBr)CCC(Br)C(C)(C)Cl (stereo not drawn) : TGI value = > 10 µM

---

- Tested on: EKVX NSCLC
- Protocol text: NCI tumour cell line growth inhibition, 48 h
Please respond with reported TGI for every item in the list.

State recorded TGI for all listed compounds.
1. O=C(Nc1ccn(C2CCC(CO)O2)c(=O)n1)c1ccccc1 (stereo unspecified)
2. COc1ccc(NC2C(=O)C3(C)CCC2C3(C)C)cc1 (stereo unspecified)
3. C(=N\c1cc2cc(Sc3ccccc3)ccc2[nH]1)/c1ccccc1
4. O=[N+]([O-])c1cc([N+](=O)[O-])c(NN=C(c2ccc(O)cc2)c2ccc(O)cc2)cc1Cl
5. CC(C)(C)[Si](C)(C)OC1(CCc2ccccc2OS(=O)(=O)C(F)(F)F)CCCC=C1COCc1ccccc1 (stereo unspecified)

Return:
1. > 100 µM
2. > 100 µM
3. > 12.5 µM
4. 5.1 µM
5. > 100 µM

---

- System: NCI/ADR-RES ovarian
- Protocol text: NCI tumour cell line growth inhibition, 48 h
Observable: TGI (µM)
One number for each entry, in µM.

State recorded TGI for all listed compounds.
1. CN(C)CCNc1c2c(c(NCCN(C)C)c3c(CN(C)C)c[nH]c13)C(=O)c1ccccc1C2=O
2. O=C(/C=C/c1c(-c2ccccc2)[nH]c2ccccc12)S(=O)(=O)c1ccccc1

Return:
1: 20.5; 2: 53.6

---

- Test system: MCF7 breast
- Protocol text: NCI tumour cell line growth inhibition, 48 h; in the data active = GI50 below about 0.43 µM; inactive = the rest
Just give me one of these, please: y (active), n (inactive)

Example entries begin here.
line_notation=COc1ccc(/C=C/C(=O)c2c(O)c(C)c(O)c3c2OC2=CC(O)=C(C(C)=O)C(=O)[C@]23C)cc1 label_value=n
line_notation=COc1cc(Nc2cc(O)c3c(=O)cc(-c4ccccc4)oc3c2)cc(OC)c1 label_value=y
line_notation=Cn1c([N+](=O)[O-])cnc1/C=C1\Oc2ccc(Br)cc2C1=O label_value=y

Consider the additional compound presented here.
Enquiry: Please state the recorded outcome for this compound: `COc1cc(Nc2ncc3c(C)nc(-c4cccc(C(F)(F)F)c4)n3n2)cc(OC)c1OC`
Return: n

---

- Tested on: UO-31 renal
- Protocol text: NCI tumour cell line growth inhibition, 48 h
Observable: TGI (µM)
Answers are plain numbers, in µM.

line_notation=COc1ccc(Cc2nccc3cc(OC)c(OC)cc23)cc1 tested_system="UO-31 renal" obs_value=90.8
line_notation=Cc1ccc(O)c(-c2cc(-c3cccc(Br)c3)c(C#N)c(N)n2)c1 tested_system="UO-31 renal" obs_value=72.7
line_notation=COc1cc(C(=O)/C=C/c2c(-c3cccs3)nc3sccn23)cc(OC)c1OC tested_system="UO-31 renal" obs_value=4.7

// `CN(C)CCNC(=O)c1cccc2nc3c(ccc4ccccc43)nc12` : TGI value = 14.9
